- STUDY_TARGET: DNMT1 (Homo sapiens, UniProt P26358 P26358:1-1616)
- Sequence (P26358 whole entry, one chain of several): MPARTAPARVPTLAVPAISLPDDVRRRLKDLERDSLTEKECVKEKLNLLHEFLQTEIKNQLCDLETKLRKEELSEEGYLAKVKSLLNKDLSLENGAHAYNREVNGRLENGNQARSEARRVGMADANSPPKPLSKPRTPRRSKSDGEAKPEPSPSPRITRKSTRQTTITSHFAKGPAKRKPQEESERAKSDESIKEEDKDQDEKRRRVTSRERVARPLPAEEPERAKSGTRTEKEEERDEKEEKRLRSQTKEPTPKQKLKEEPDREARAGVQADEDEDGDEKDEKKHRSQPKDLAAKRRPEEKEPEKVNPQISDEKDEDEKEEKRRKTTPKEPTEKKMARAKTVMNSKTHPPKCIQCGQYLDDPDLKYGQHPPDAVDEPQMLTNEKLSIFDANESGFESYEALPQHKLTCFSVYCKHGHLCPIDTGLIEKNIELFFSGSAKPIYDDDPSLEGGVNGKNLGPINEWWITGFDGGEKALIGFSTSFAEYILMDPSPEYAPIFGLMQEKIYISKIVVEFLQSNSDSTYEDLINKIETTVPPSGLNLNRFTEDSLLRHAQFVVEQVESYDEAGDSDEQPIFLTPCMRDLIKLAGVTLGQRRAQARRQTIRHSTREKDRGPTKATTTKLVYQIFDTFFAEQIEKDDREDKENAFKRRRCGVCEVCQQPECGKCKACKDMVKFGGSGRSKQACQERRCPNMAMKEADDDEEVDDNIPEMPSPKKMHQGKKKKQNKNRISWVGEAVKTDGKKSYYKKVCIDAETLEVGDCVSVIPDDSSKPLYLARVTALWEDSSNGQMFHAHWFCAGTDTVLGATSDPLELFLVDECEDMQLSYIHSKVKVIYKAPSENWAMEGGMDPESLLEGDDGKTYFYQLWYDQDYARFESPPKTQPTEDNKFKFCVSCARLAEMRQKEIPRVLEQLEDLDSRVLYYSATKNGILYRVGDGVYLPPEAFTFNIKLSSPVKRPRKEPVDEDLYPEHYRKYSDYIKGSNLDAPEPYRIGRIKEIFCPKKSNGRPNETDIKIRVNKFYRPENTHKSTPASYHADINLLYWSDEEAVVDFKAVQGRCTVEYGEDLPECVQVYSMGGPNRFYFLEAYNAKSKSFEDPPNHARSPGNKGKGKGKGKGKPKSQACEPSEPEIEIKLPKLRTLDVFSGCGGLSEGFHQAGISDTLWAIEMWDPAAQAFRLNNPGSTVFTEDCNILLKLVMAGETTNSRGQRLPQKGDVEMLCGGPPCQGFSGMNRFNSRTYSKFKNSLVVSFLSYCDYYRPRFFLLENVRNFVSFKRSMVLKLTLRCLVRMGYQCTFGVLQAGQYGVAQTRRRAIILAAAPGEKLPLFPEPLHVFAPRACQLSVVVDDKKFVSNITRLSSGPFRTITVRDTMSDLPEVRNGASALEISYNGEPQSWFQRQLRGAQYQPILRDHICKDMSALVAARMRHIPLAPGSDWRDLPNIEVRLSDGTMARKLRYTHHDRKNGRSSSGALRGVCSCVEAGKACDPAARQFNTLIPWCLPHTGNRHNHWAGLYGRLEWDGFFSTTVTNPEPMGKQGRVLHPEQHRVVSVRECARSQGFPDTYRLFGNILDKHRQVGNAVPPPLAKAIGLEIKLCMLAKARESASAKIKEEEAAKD
- RUN_DESCRIPTION: BLI; 100 nM to 2 uM; R2=0.9017; p159 states Kd not measurable
- TEST_CONDITIONS: tags: His-tagged (Active Motif), full-length; GST-tagged version (Active Motif) used for SELEX; label: 3'-biotin (ELONA, pulldown); hairpin
MEASUREMENT_TYPE: Kd
Please give the number followed by its unit.

(Q) Could you tell me which Kd is on file for CUGAGGCCUUGGCGAGGCUUCU (ssRNA, 2'-F pyrimidines) [R5-F (DNMT1 bait)] ?
(A) 600 nM
